# System: marrow stromal cells
# experiment: Markers of osteogenic differentiation in marrow stromal cells (ALP, osteocalcin mRNA, mineral formation)
# Type: cell-based, mouse
# condition info: alone or in combination with originally described oxysterols
measured metric: osteogenic property (markers of osteoblastic differentiation)

compound	val
CC(C)C(O)CC[C@@H](C)[C@H]1CC[C@H]2[C@@H]3CC=C4C[C@@H](O)CC[C@]4(C)[C@H]3CC[C@]12C (stereo partly shown) [24-hydroxycholesterol]	osteoinductive
C[C@H](CC[C@@H]1OC1(C)C)[C@H]1CC[C@H]2[C@@H]3CC=C4C[C@@H](O)CC[C@]4(C)[C@H]3CC[C@]12C [24S,25-epoxycholesterol]	osteoinductive
C[C@@H](CO)CCC[C@@H](C)[C@H]1CC[C@H]2[C@@H]3CC=C4C[C@@H](O)CC[C@]4(C)[C@H]3CC[C@]12C [26-hydroxycholesterol]	osteoinductive
